# target of assay: Gal6S(b1-4)Glc
# experimental protocol: glycan array binding signal (z-score within array); higher = stronger binding
# condition context: glycan notation: IUPAC condensed, linker removed
Many of the other results were omitted from the sample, so the strongest signals are more common in it than they were.
Values of glycan array binding signal (z-score) greater than or equal to -0.2 map to condition met; values below map to condition not met.

1. RegIIIbeta (Mus musculus), P35230 (protein) MLPPTACSVMSWMLLSCLMLLSQVQGEDSLKNIPSARISCPKGSQAYGSYCYALFQIPQTWFDAELACQKRPGGHLVSVLNSAEASFLSSMVKRTGNSYQYTWIGLHDPTLGAEPNGGGWEWSNNDVMNYFNWERNPSTALDRAFCGSLSRASGFLKWRDMTCEVKLPYVCKFTG: condition met
2. CD72 ectodomain (Homo sapiens), P21854 (protein) RYLQVSQQLQQTNRVLEVTNSSLRQQLRLKITQLGQSAEDLQGSRRELAQSQEALQVEQRAHQAAEGQLQACQADRQKTKETLQSEEQQRRALEQKLSNMENRLKPFFTCGSADTCCPSGWIMHQKSCFYISLTSKNWQESQKQCETLSSKLATFSEIYPQSHSYYFLNSLLPNGGSGNSYWTGLSSNKDWKLTDDTQRTRTYAQSSKCNKVHKTWSWWTLESESCRSSLPYICEMTAFRFPD: condition not met
3. Sebin2 (Coprinopsis cinerea), A8PE78 (protein) MTTPFYAYCHNVQDDNTWRLGLVFANRSTADEWWRAISEATSSIPITKSITRVTPQYYTHDIRVWNMYNFFVDGNIKSISDKFRGRLFITLEYDRSGRGVSVFPPLHIVDHVSGNWYYIRSKTAPHLFWFYDETRNAIYASKEKRTRFKVSIRNPSPQTPKDAIMINSDDVVIHIKESLYVGVDSYLGHIIPTRAYRTFKFGELEGGAIAGIEVAENAEERCSSTFDGASLYFVGPDSSSPGEPWELV: condition not met
4. Hip/Pap (Homo sapiens), Q06141 (protein) MLPPMALPSVSWMLLSCLMLLSQVQGEEPQRELPSARIRCPKGSKAYGSHCYALFLSPKSWTDADLACQKRPSGNLVSVLSGAEGSFVSSLVKSIGNSYSYVWIGLHDPTQGTEPNGEGWEWSSSDVMNYFAWERNPSTISSPGHCASLSRSTAFLRWKDYNCNVRLPYVCKFTD: condition met
5. TIM-1 (Mus musculus), AAL35774 (protein) MNQIQVFISGLILLLPGAVDSYVEVKGVVGHPVTLPCTYSTYRGITTTCWGRGQCPSSACQNTLIWTNGHRVTYQKSSRYNLKGHISEGDVSLTIENSVESDSGLYCCRVEIPGWFNDQKVTFSLQVKPEIPTRPPTRPTTTRPTATGRPTTISTRSTHVPTSIRVSTSTPPTSTHTWTHKPEPTTFCPHETTAEVTGIPSHTPTDWNGTVTSSGDTWSNHTEAIPPGKPQKNPTKGFYVGICIAALLLLLLVSTVAITRYILMKRKSASLSVVAFRVSKIEALQNAAVVHSRAEDNIYIVEDRP: condition met
6. Gal 8 (Mus musculus), Q9JL15 (protein) MGGSHHHHHHGMASMLSLNNLQNIIYNPIIPYVGTITEQLKPGSLIVIRGHVPKDSERFQVDFQLGNSLKPRADVAFHFNPRFKRSSCIVCNTLTQEKWGWEEITYDMPFRKEKSFEIVFMVLKNKFQVAVNGRHVLLYAHRISPEQIDTVGIYGKVNIHSIGFRFSSASALPHTLGDLQSMETSALGLTQINRENIQKPGKLQLSLPFEARLNASMGPGRTVVIKGEVNTNARSFNVDLVAGKTRDIALHLNPRLNVKAFVRNSFLQDAWGEEERNITCFPFSSGMYFEMIIYCDVREFKVAINGVHSLEYKHRFKDLSSIDTLSVDGDIRLLDVRSW: condition not met
7. PNA (Arachis hypogaea), P02872 (protein) MKPFCVFLTFFLLLAASSKKVDSAETVSFNFNSFSEGNPAINFQGDVTVLSNGNIQLTNLNKVNSVGRVLYAMPVRIWSSATGNVASFLTSFSFEMKDIKDYDPADGIIFFIAPEDTQIPAGSIGGGTLGVSDTKGAGHFVGVEFDTYSNSEYNDPPTDHVGIDVNSVDSVKTVPWNSVSGAVVKVTVIYDSSTKTLSVAVTNDNGDITTIAQVVDLKAKLPERVKFGFSASGSLGGRQIHLIRSWSFTSTLITTTRRSIDNNEKKIMNMASA: condition met
8. Tachylectin-2 (Tachypleus tridentatus), TAL2_TACTR (protein) VGGESMLRGVYQDKFYQGTYPQNKNDNWLARATLIGKGGWSNFKFLFLSPGGELYGVLNDKIYKGTPPTHDNDNWMGRAKKIGNGGWNQFQFLFFDPNGYLYAVSKDKLYKASPPQSDTDNWIARATEIGSGGWSGFKFLFFHPNGYLYAVHGQQFYKALPPVSNQDNWLARATKIGQGGWDTFKFLFFSSVGTLFGVQGGKFYEDYPPSYAHDNWLARAKLIGNGGWDDFRFLFF: condition not met
9. AT3G44510(29) (Arabidopsis thaliana), F4J341 (protein) MEEHLQGRIKLHDGRYLAYKERGVPKDDAKFTIVLVHGFGSSKDMNFNVSQELVNEIGIYFVLYDRAGYGESDPNPKRSLKSEAYDVQELADGLEIGSRFYLIGISMGSYTVWSCLKHIPQRLAGVAMVAPVVNFRWPSIPKSLMPKDYRREVAKWSVWIANYFPGLLQWLVTQNMFSTTSMLEKNPVYFNDQDIEVLKHIKGFPMLTKEKLRERGVFGTLRSDFLVAFGDWDFDPADLPDPSLSGPEKGSSSVHIWQGYEDKVMPFQLQRCLCRKLPWIRYHEVPKGGHLIVHYDGICDAILKSLLLGEDLPMYKPKAVITEPA: condition not met
